- Measurement Target: Xanthine dehydrogenase/oxidase (Homo sapiens, UniProt P47989)
- Sequence (P47989 whole entry): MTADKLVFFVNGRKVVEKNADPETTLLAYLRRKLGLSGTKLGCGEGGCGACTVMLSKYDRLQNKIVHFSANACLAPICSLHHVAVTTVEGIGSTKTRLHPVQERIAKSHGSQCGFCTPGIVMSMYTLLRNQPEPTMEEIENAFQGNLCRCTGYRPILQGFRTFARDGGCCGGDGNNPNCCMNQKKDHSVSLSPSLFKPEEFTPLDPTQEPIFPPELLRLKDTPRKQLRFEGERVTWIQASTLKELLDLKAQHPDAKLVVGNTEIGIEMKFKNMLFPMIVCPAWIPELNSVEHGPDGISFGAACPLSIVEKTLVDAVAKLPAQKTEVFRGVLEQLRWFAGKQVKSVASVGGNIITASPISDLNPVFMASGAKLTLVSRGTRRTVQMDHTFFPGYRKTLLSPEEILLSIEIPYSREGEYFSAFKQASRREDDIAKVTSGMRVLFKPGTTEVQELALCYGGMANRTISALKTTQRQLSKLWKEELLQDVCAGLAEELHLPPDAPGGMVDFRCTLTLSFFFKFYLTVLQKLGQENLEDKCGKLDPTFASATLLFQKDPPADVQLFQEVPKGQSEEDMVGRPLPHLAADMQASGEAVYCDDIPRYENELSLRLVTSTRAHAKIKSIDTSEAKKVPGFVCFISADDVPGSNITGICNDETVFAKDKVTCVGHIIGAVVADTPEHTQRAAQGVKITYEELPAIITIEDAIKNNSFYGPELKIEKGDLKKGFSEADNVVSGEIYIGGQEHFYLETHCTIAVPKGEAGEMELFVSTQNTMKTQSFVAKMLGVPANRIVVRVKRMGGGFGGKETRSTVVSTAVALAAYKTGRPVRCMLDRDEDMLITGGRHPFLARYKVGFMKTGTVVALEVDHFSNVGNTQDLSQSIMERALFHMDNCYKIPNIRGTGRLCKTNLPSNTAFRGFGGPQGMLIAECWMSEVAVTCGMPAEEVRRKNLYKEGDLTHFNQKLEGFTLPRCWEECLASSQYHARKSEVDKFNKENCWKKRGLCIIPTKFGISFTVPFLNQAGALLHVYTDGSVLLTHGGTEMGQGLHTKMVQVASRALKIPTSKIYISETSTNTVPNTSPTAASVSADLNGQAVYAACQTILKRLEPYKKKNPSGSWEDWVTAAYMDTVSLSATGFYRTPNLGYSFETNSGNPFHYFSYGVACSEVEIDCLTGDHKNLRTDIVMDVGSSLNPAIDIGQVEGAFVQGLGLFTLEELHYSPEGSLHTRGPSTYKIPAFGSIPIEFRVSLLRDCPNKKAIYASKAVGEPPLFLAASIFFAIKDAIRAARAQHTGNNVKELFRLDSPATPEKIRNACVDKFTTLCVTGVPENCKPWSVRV
Observation Type: IC50

QUERY: Recall the recorded IC50 for O=C(O)CSc1nnc(Br)n1-c1ccc(C2CC2)c2ccccc12 with Xanthine dehydrogenase/oxidase (Homo sapiens, UniProt P47989) and state it.
RESULT: > 300 µM
